Numbers sourced from patent US7902240B2.

Molecular target: motor domain of human KSP (Eg 5, KNSL1) (Homo sapiens, UniProt P52732)
Construct: KSP motor protein (i.e., the KSP motor domain)
Sequence (P52732 18-359 limits assumed): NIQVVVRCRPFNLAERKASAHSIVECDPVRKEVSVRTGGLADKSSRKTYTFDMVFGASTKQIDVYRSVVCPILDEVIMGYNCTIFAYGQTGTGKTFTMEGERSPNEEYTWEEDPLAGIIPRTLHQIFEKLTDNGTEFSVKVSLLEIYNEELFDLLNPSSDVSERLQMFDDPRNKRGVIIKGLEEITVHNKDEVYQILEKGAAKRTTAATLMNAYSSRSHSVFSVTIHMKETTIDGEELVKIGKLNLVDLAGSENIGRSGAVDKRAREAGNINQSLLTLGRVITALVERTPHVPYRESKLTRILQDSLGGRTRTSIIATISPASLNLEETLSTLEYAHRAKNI
Test: Assay for determining KSP activity (microtubule-stimulated ATPase, Biomol Green)
Conditions: KSP motor domain 45 nM, microtubules 35 μg/mL, ATP, 1 hour RT, absorbance at 630 nm
Excerpt: This example provides a representative in vitro assay for determining KSP activity in vitro. Purified microtubules obtained from bovine brain were purchased from Cytoskeleton Inc. (Denver, Colo., USA). The motor domain of human KSP (Eg 5, KNSL1) was cloned, expressed, and purified to greater than 95% homogeneity. Biomol Green was purchased from Affinity Research Products Ltd. (Matford Court, Exeter, Devon, United Kingdom). […]
Please provide measured IC50 for the entries that follow.

Ask: Lab request: please report IC50 under test system motor domain of human KSP (Eg 5, KNSL1) (Homo sapiens, UniProt P52732) for CC(C)c1cccc(Cn2nc(-c3cc(F)ccc3F)nc2[C@H](N(CC[C@@H](N)C(F)F)C(=O)[C@H](C)O)C(C)(C)C)c1 [Compound 86]
Result: > 1000 nM

Ask: Lab request: please report IC50 under test system motor domain of human KSP (Eg 5, KNSL1) (Homo sapiens, UniProt P52732) for C[C@H](O)C(=O)N(CC[C@H](N)CF)[C@@H](c1nc(-c2cc(Cl)cc(Cl)c2)nn1Cc1ccccc1)C(C)(C)C [Compound 71]
Result: > 1000 nM

Ask: Lab request: please report IC50 under test system motor domain of human KSP (Eg 5, KNSL1) (Homo sapiens, UniProt P52732) for Cc1cccc(Cn2nc(-c3cc(F)ccc3F)nc2[C@H](N(CC[C@H](N)C(F)F)C(=O)[C@H](C)O)C(C)(C)C)c1 [Compound 79]
Result: ≤ 100 nM

Ask: Lab request: please report IC50 under test system motor domain of human KSP (Eg 5, KNSL1) (Homo sapiens, UniProt P52732) for CC(C)c1cccc(Cn2nc(-c3cc(F)ccc3F)nc2[C@H](N(CC[C@H](N)C(F)F)C(=O)[C@H](C)O)C(C)(C)C)c1 [Compound 85]
Result: > 1000 nM
